Hey, just so you know, these numbers are from patent US20250195521A1.

Entries annotated with measured IC50
Measured Target: NRAS Q61R (Homo sapiens (Human), UniProt P01111+P62937, Q61R)
Sequence (P01111 whole entry Q61R, one chain of several): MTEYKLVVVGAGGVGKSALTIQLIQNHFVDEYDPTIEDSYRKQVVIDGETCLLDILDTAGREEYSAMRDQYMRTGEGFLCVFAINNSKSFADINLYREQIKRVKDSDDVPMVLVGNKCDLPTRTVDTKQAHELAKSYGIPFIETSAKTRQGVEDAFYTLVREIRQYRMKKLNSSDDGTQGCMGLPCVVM
Test Protocol: Ras-Raf disruption/FRET/MOA assay (BRAF RBD, Cyclophilin A)
Assay type: biochemical

Entry Smiles	IC50
CCn1c(-c2cccnc2[C@H](C)OC)c2c3cc(ccc31)-c1csc(n1)C[C@H](NC(=O)[C@H](C(C)C)N(C)C(=O)N1CC[C@H]1CN)C(=O)N1CCC[C@H](N1)C(=O)OCC(C)(C)C2	1000 to 10000 nM
CCn1c(-c2cccnc2[C@H](C)OC)c2c3cc(ccc31)-c1csc(n1)C[C@H](NC(=O)[C@H](C(C)C)N(C)C(=O)N1CC3(CC(NCCOC)C3)C1)C(=O)N1CCC[C@H](N1)C(=O)OCC(C)(C)C2	100 to 1000 nM
CCn1c(-c2cccnc2[C@H](C)OC)c2c3cc(ccc31)-c1csc(n1)C[C@H](NC(=O)[C@H](C(C)C)N(C)C(=O)N1CC[C@@H]3CN(C)C[C@@H]31)C(=O)N1CCC[C@H](N1)C(=O)OCC(C)(C)C2	1000 to 10000 nM
CCn1c(-c2cccnc2[C@H](C)OC)c2c3cc(ccc31)-c1csc(n1)C[C@H](NC(=O)[C@H](C(C)C)N(C)C(=O)N1C[C@H]3CCN(C)[C@H]3C1)C(=O)N1CCC[C@H](N1)C(=O)OCC(C)(C)C2	100 to 1000 nM
CCn1c(-c2cccnc2[C@H](C)OC)c2c3cc(ccc31)-c1csc(n1)C[C@H](NC(=O)[C@H](C(C)C)N(C)C(=O)N1CCS(=O)(=O)CC1)C(=O)N1CCC[C@H](N1)C(=O)OCC(C)(C)C2	100 to 1000 nM
CCn1c(-c2cccnc2[C@H](C)OC)c2c3cc(ccc31)-c1cc(O)cc(c1)C[C@H](NC(=O)[C@H](C(C)C)N(C)C(=O)C13CC(CO1)C3)C(=O)N1CCC[C@H](N1)C(=O)OCC(C)(C)C2	100 to 1000 nM
CCn1c(-c2cccnc2[C@H](C)OC)c2c3cc(ccc31)-c1csc(n1)C[C@H](NC(=O)[C@H](C(C)C)N(C)C(=O)N1C[C@@H]3[C@@H](C1)OCCN3C)C(=O)N1CCC[C@H](N1)C(=O)OCC(C)(C)C2	100 to 1000 nM
CCn1c(-c2cccnc2[C@H](C)OC)c2c3cc(ccc31)-c1csc(n1)C[C@H](NC(=O)[C@H](C(C)C)N(C)C(=O)[C@H]1CCN(S(C)(=O)=O)C1)C(=O)N1CCC[C@H](N1)C(=O)OCC(C)(C)C2	1000 to 10000 nM
CCn1c(-c2cccnc2[C@H](C)OC)c2c3cc(ccc31)-c1csc(n1)C[C@H](NC(=O)[C@H](C(C)C)N(C)C(=O)N1CCC[C@H](N(C)C)CC1)C(=O)N1CCC[C@H](N1)C(=O)OCC(C)(C)C2	100 to 1000 nM

###

Known IC50 of a selection of compounds
Measured Target: KRAS Q61H (Homo sapiens (Human), UniProt P01116+P62937, Q61H)
Sequence (P01116 other isoform, or with tags, fused parts or gaps Q61H): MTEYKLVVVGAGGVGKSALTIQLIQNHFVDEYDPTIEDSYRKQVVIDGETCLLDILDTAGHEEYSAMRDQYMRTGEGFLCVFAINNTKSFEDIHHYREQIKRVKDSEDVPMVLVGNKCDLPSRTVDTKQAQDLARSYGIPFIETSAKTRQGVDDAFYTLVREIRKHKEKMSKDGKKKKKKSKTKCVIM
Sequence (P62937 whole entry): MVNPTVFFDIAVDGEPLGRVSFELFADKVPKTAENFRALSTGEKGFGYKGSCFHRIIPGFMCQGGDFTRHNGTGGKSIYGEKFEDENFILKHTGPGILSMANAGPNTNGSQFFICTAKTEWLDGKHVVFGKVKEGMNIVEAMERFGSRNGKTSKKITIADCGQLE
Test Protocol: Ras-Raf disruption/FRET/MOA assay (BRAF RBD, Cyclophilin A)
Type: biochemical
Recorded Endpoint: IC50

Compound	Value Measured
CCn1c(-c2cccnc2[C@H](C)OC)c2c3cc(ccc31)-c1csc(n1)C[C@H](NC(=O)[C@H](C(C)C)N(C)C(=O)N1CC([C@@H](CO)OC)C1)C(=O)N1CCC[C@H](N1)C(=O)OCC(C)(C)C2	10 to 100 nM
CCn1c(-c2cccnc2[C@H](C)OC)c2c3cc(ccc31)-c1csc(n1)C[C@H](NC(=O)N1CCC1)C(=O)N1CCC[C@H](N1)C(=O)OCC(C)(C)C2 [Compound A369]	100 to 1000 nM
CCn1c(-c2cccnc2[C@H](C)OC)c2c3cc(ccc31)-c1cc(O)cc(c1)C[C@H](NC(=O)C1CCC3C1C3(F)F)C(=O)N1CCC[C@H](N1)C(=O)OCC(C)(C)C2 (stereo partly drawn)	100 to 1000 nM
CCn1c(-c2cc(N3CCN(C)CC3)cnc2[C@H](C)OC)c2c3cc(ccc31)-c1csc(n1)C[C@H](NC(=O)[C@H](C(C)C)N(C)C(=O)N1CC(OC)C1)C(=O)N1CCC[C@H](N1)C(=O)OCC(C)(C)C2	10 to 100 nM
CCn1c(-c2cccnc2[C@H](C)OC)c2c3cc(ccc31)-c1csc(n1)C[C@H](NC(=O)[C@H](C(C)C)N(C)C(=O)N1CCOC3(COC3)C1)C(=O)N1CCC[C@H](N1)C(=O)OCC(C)(C)C2	10 to 100 nM
CCn1c(-c2cccnc2[C@H](C)OC)c2c3cc(ccc31)-c1csc(n1)C[C@H](NC(=O)[C@H](C(C)C)N(C)C(=O)N1CC[C@]3(CCNC3=O)C1)C(=O)N1CCC[C@H](N1)C(=O)OCC(C)(C)C2	100 to 1000 nM
CCn1c(-c2cccnc2[C@H](C)OC)c2c3cc(ccc31)-c1csc(n1)C[C@H](NC(=O)[C@H](C(C)C)N(C)C(=O)N1CC(O)(CN(C)C)C1)C(=O)N1CCC[C@H](N1)C(=O)OCC(C)(C)C2	100 to 1000 nM
CCn1c(-c2cccnc2[C@H](C)OC)c2c3cc(ccc31)-c1cc(O)cc(c1)C[C@H](NC(=O)[C@H](C(C)C)N(C)C(=O)C1CCC3(CCOC3)O1)C(=O)N1CCC[C@H](N1)C(=O)OCC(C)(C)C2 (stereo partly drawn)	10 to 100 nM
CCn1c(-c2cccnc2[C@H](C)OC)c2c3cc(ccc31)-c1csc(n1)C[C@H](NC(=O)[C@H](C(C)C)N(C)C(=O)N(C)C[C@H]1CCCN1C)C(=O)N1CCC[C@H](N1)C(=O)OCC(C)(C)C2	100 to 1000 nM
